- Target of assay: IFI16FL (Homo sapiens, UniProt Q16666-2 1-729)
- Sequence (Q16666 other isoform, or with tags, fused parts or gaps): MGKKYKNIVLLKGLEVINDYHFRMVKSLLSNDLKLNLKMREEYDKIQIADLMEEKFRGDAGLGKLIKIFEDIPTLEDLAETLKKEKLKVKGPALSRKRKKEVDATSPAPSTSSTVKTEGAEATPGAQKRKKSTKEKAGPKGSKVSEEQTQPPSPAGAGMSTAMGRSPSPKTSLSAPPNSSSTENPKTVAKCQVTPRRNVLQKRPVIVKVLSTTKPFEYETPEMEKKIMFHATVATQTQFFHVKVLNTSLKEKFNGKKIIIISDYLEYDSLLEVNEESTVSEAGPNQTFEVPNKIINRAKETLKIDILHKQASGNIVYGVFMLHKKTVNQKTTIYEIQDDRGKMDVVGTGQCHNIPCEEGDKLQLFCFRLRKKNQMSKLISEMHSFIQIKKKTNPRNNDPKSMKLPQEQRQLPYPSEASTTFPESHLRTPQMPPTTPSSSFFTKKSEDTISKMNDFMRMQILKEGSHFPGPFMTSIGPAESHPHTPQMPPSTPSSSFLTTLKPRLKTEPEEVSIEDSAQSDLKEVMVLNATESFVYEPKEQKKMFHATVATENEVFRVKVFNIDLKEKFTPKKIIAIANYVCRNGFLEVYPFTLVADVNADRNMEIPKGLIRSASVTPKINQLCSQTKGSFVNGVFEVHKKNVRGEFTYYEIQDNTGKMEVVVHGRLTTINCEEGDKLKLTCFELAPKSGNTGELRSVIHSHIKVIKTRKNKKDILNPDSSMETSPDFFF
- Assay method text: fluorescence anisotropy; 160 mM KCl (60 mM KCl for IFI16HinAB); buffer, pH and temperature not given in the available text
- Measurement conditions: protein: recombinant; tags: C-terminal His6
Give measured Kd for each item. Keep answers brief.

IN: Can you look up the measured Kd of 60-base ssDNA_T (ssDNA) DNA: TTTCTTTCTTTCTTTCTTTCTTTCTTTCTTTCTTTCTTTCTTTCTTTCTTTCTTTCTTTC for me?
OUT: 22 nM

IN: Kd lookup needed for 60-bp dsRNA (dsRNA) RNA 1: UAAGACACGAUGCGAUAAAAUCUGUUUGUAAAAUUUAUUAAGGGUACAAAUUGCCCUAGC RNA 2: GCUAGGGCAAUUUGUACCCUUAAUAAAUUUUACAAACAGAUUUUAUCGCAUCGUGUCUUA , thanks.
OUT: 85 nM

IN: I am curious: what Kd value has been reported for 60-bp DNA:RNA hybrid (DNA:RNA) DNA: TAAGACACGATGCGATAAAATCTGTTTGTAAAATTTATTAAGGGTACAAATTGCCCTAGC RNA: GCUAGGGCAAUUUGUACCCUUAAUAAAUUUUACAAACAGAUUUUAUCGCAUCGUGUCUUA ?
OUT: 35 nM

IN: Query (binder): 60-base ssRNA_U (ssRNA) RNA: UUUCUUUCUUUCUUUCUUUCUUUCUUUCUUUCUUUCUUUCUUUCUUUCUUUCUUUCUUUC ; field requested: Kd
OUT: 78 nM

All figures here come from paper PMC10085679.
